- tgt: T1, serum resistance-associated protein (SRA) from Trypanosoma brucei rhodesiense, recombinant SRA (SEQ ID NO: … (Trypanosoma brucei rhodesiense, UniProt O96637 31-274))
- T1 construct: also called SRA protein
- T1 sequence: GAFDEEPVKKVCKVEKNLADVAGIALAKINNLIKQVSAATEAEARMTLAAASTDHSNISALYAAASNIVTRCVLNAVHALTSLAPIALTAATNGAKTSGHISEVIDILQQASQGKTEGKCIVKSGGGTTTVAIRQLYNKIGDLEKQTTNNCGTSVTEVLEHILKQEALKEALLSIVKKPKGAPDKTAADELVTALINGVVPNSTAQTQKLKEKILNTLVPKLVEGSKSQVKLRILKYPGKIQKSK
- protocol.notes: SPR, mAb captured, 25C, pH 7.4
measured.property: kon (M⁻¹ s⁻¹)
Express it in M⁻¹ s⁻¹; write the number only.

Problem: Field request: kon | item: H1H10069P (antibody, V domains shown, Fully human antibody with human IgG1 Fc (prefix H1H)) VH: QVQLQESGPGLVKPSETLSLTCSVSGGSFTNYYWSWIRQPPGKGLEWIGSVFYSGTTNYNPSLQSRVTLSIETSKNQFSLRLNSVTAADTAVYYCARDQGAAALDYWGQGTLVTVSS VL: DIQMTQSPSTLSASVGDRLTITCRASQSINNWLAWYQQKPGKAPKLLIYKASNLESGVPSRFSGSGSGTEFTLTISNLQPDDFATYYCQQYNSFFLTFGGGTKVEIK
Solution: 636000

Problem: Next entry: H2aM10204N (antibody, V domains shown, Chimeric antibody, human variable domains and mouse constant domains (mouse Fc, prefix H2aM); also called H2M10204N) VH: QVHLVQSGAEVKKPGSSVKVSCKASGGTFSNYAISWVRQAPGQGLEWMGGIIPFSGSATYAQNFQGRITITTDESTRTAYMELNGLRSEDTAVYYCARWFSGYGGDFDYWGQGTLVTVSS VL: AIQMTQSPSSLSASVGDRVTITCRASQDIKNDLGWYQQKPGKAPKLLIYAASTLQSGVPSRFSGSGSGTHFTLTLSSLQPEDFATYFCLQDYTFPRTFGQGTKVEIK
Solution: 556000
